// provenance: the Bradley open melting point set (2014)

propertyMeasured: melting point (°C)

compound: COC(=O)c1ccc2cc(Br)ccc2c1 [methyl 6-bromo-2-naphthoate]
value: 122

compound: COc1cc(Cc2cnc(N)nc2N)cc(OC)c1OC [5-(3,4,5-Trimethoxybenzyl)pyrimidine-2,4-diamine]
value: 201

compound: OCCCl
value: -63

(I) NCCOB(c1ccccc1)c1ccccc1 [2-aminoethyl diphenylborinate]
(II) CCc1ccccc1B(O)O
(III) C=C(C)c1ccccc1
Hey, quick one: sort these by melting point, low to high? Response field: labels, in requested order.
III, II, I
(III: -23 °C, II: 97 °C, I: 189 °C)

====

propertyMeasured: melting point (°C)

Consider the worked cases shown below.
molecule: O=C(O)c1cc(Cl)c(O)c(Cl)c1 [3,5-dichloro-4-hydroxybenzoic acid]
melting point / °C: 268
--
molecule: NC1(C(=O)O)CCCC1 [Cycloleucine]
melting point / °C: 330

(A) CCC(C)(C)c1ccc(OCC(=O)O)c(C(C)(C)CC)c1 [2,4-di(tert-pentyl)phenoxyacetic acid]
(B) CC(C)Cc1ccc(C(C)C(=O)O)cc1 (stereo not drawn) [4-isobutyl-alpha-methylphenylacetic acid]
Lab note: record which item had the higher melting point, A or B . Record your answer as the label of the chosen record.
A
(A: 126 °C, B: 77 °C)

====

Counter-ions that a name gives are not always drawn.
propertyMeasured: melting point (°C)

compound: CC(C)(C)OC(=O)N1CCNCC1 [1-boc-piperazine]
melting point [°C]: 46

(A) CC(=O)N(C(C)=O)c1cc(/C=C/C(=O)O)ccc1/C=C/C(=O)O
(B) OB(O)c1cccs1 [thiophene-2-boronic acid]
Identify the entry with the larger melting point. Options: A and B Pick one and reply with its label.
A
(A: 313 °C, B: 130 °C)

(A) O=C(O)c1ccccc1 [Benzoic acid]
(B) COC(=O)c1cccc(N=C=O)c1 [3-(methoxycarbonyl)phenyl isocyanate]
(C) CCCCC[C@H]1CC[C@H](C(=O)O)CC1 [trans-4-n-pentylcyclohexanecarboxylic acid]
(D) Oc1noc2nc3ccccc3nc12 [isoxazolo[4,5-b]quinoxalin-3(2H)-one]
(E) NS(=O)(=O)c1ccccc1Cl [2-chlorobenzenesulfonamide]
Rank the items in ascending order with respect to melting point. Answer by listing the labels in the requested order.
B, C, A, E, D

(P) CC(C)[C@@H](NC(=O)OCc1ccccc1)C(=O)O [N-benzyloxycarbonyl-D-valine]
(Q) CS(=O)(=O)CCO [2-(methylsulfonyl)ethanol]
(R) CCOC(=O)/C=CC(=O)OCC [diethyl maleate]
(S) O=c1on(-c2ccccc2)c(Br)c1-c1ccccc1 [3-bromo-2,4-diphenylisoxazol-5(2H)-one]
Would you mind ranking these compounds by ascending melting point? As an answer, provide the labels arranged in the order called for.
R, Q, P, S
(R: -11 °C, Q: 29 °C, P: 59 °C, S: 166 °C)

(a) Cc1cc(C)c([N+](=O)[O-])c(C)c1Br [2-bromo-4-nitro-1,3,5-trimethylbenzene]
(b) O=C(O)c1ccc([N+](=O)[O-])cc1 [4-nitrobenzoic acid]
Of the pair a and b , name the member with the lesser recorded melting point. Mark your answer with the label of the selected entry.
a
(a: 60 °C, b: 240 °C)

====

propertyMeasured: melting point (°C)

Known results for molecules:
molecule: OCCCCC(O)CO (centres undefined)
unitOfMeasurement: °C
value: -20

molecule: CC[C@@]1(O)C(=O)OCc2c1cc1n(c2=O)Cc2cc3ccccc3nc2-1
unitOfMeasurement: °C
value: 276

molecule: C=CCCCCCCCC [1-decene]
unitOfMeasurement: °C
value: -66

molecule: Clc1ccc(Br)cc1
unitOfMeasurement: °C
value: 67

molecule: COc1cc(Cc2cnc(N)nc2N)cc(OC)c1OC [Trimethoprim]
unitOfMeasurement: °C
value: 201

(I) C=C1C(C[C@@H](O)C[C@@H]1O)=CC=C2/CCC[C@]3(C)[C@H](CC[C@@H]23)[C@H](C)CCCC(C)(C)O
(II) CC(=O)N(C1=NC(=O)/C(=C/c2cc(C)n(-c3ccc(C(F)(F)F)cc3)c2C)S1)c1ccccc1
Lower melting point: I or II ? Answer with the label corresponding to your selection.
I
(I: 113 °C, II: 310 °C)
